Values from ChEMBL document CHEMBL5506003

Test system: U-251
assayMethodText: Cytotoxicity against human U-251 cells incubated for 72 hrs by MTT assay
experimentalSetup: U-251, 72 h
measureName: IC50 (µM)
Give the value, in units of µM, as a plain number.

# count of solved cases: 4
INSERT INTO measurements (smilesstructure, assaysystem, measurename, measurednumber) VALUES
  ('COc1ccc(/C=C/C(=O)c2ccc(Cl)c3c2OC(C)(C)C=C3)cc1OCC(=O)Nc1ccccc1N', 'U-251', 'IC50', 9.23),
  ('COc1ccc(/C=C/C(=O)c2ccc(OC)c3c2OC(C)(C)C=C3)cc1OCCCC(=O)NO', 'U-251', 'IC50', 3.68),
  ('COc1ccc(/C=C/C(=O)c2ccc(Br)c3c2OC(C)(C)C=C3)cc1NCC(=O)Nc1ccccc1N', 'U-251', 'IC50', 3.66),
  ('COc1ccc(/C=C/C(=O)c2ccc(OC)c3c2OC(C)(C)C=C3)cc1NCC(=O)NO', 'U-251', 'IC50', 0.15);

Next up:
Lookup: Give IC50 only, for COc1ccc(/C=C/C(=O)c2ccc(OC)c3c2OC(C)(C)C=C3)cc1NCC(=O)Nc1ccccc1N , using U-251 data.
Found: 4.19
